# target-desc: human GPR40 (Homo sapiens, UniProt O14842)
# Sequence (O14842 whole entry): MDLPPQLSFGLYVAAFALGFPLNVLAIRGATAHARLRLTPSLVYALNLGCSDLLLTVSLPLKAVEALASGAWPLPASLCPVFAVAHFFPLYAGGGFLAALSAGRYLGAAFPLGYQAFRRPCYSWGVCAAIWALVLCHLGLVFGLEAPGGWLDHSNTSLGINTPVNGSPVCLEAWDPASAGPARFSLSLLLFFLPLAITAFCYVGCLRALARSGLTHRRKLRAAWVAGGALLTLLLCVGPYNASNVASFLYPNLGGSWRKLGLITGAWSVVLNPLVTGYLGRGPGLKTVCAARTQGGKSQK
# measurement-notes: FLIPR intracellular calcium assay in HEK-293 cells transiently expressing GPR40 (with G-protein cocktail)
# stated-conditions: Additional Fatty Acid Compounds; FLIPR
This listing pairs compounds with measured EC50.
observed-property: EC50 (µM)

| compound | target-desc | observed-property | recorded-number |
| --- | --- | --- | --- |
| CCCCC/C=C\C/C=C\C/C=C\C/C=C\CCCCCC(=O)O [Adrenic acid] | human GPR40 (Homo sapiens, UniProt O14842) | EC50 | 13.5 |
| CCCCC[C@H](O)[C@H](O)/C=C/C=C/C=C\C/C=C\CCCC(=O)O [14®, 15(S)-DiHETE] | human GPR40 (Homo sapiens, UniProt O14842) | EC50 | 23.4 |
| CCCCCCCC/C=C\C/C=C\C/C=C\CCCC(=O)O [Mean acid] | human GPR40 (Homo sapiens, UniProt O14842) | EC50 | 2.51 |
